meta.source: ChEMBL document CHEMBL4371071

Exercise: for every item that follows, state its recorded pKi.
Target: Muscarinic acetylcholine receptor M3 (Homo sapiens)
Sequence (P20309 whole entry): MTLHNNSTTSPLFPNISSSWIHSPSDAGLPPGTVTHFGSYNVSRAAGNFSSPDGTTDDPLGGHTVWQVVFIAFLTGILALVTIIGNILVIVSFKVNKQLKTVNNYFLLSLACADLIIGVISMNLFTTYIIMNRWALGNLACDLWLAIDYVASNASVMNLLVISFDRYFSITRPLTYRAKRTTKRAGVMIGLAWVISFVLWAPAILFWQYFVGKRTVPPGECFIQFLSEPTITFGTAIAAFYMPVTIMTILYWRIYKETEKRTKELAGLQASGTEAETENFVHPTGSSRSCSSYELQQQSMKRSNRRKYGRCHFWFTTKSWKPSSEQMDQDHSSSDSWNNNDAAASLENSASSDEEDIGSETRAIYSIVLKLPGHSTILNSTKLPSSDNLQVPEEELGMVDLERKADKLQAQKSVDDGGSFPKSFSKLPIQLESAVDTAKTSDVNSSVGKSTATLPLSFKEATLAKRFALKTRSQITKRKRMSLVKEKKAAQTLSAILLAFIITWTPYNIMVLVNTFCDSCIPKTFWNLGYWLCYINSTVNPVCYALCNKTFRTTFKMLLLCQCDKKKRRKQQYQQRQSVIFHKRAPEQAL
Numbers only, as −log10 of the molar value.

Below are worked cases with known answers.
[[record]]
compound = "COc1ccc(CCN(C(=O)OC2CN3CCC2CC3)c2ccccc2)cc1OC (racemic)"
quantitative_result = 7.22

[[record]]
compound = "COc1ccc(COC(=O)N(c2ccccc2)C2CN3CCC2CC3)cc1 (stereo unspecified)"
quantitative_result = 5.94


Give me pKi for each of these compounds, listed below.
1. COc1ccc(CCN(C(=O)OC2CN3CCC2CC3)c2ccccc2)cc1 (racemic)
2. COc1ccc(CCCOC(=O)N(c2ccccc2)C2CN3CCC2CC3)cc1OC (stereo unspecified)
3. COc1ccc(CCCOC(=O)N(c2ccccc2)C2CN3CCC2CC3)cc1 (stereo unspecified)

1: 8.10; 2: 5.81; 3: 6.41

pKi measured on COc1ccc(CCCOC(=O)N(c2ccccc2)C2CN3CCC2CC3)cc1F (stereo unspecified) = 6.60

----------
Give Imax for every item shown.
Target: Muscarinic acetylcholine receptor M2 (Homo sapiens)
Assay: Displacement of [3H]NMS from human M2 AChR expressed in CHO cell membranes at 100 uM after 1 to 2 hrs by liquid scintillation spectrometry method relative to control
Give bare numbers, in %.

[[record]]
compound = "COc1ccc(CCN(C(=O)OC2CN3CCC2CC3)c2ccccc2)cc1OC (racemic)"
assay_target = "Muscarinic acetylcholine receptor M2 (Homo sapiens)"
metric = "Imax"
units_label = "%"
quantitative_result = 98.6


For the 4 compounds below, give their Imax values.
1. COc1ccc(COC(=O)N(c2ccccc2)C2CN3CCC2CC3)cc1F (centres undefined)
2. O=C(OCc1ccc(Cl)c(Cl)c1)N(c1ccccc1)C1CN2CCC1CC2 (centres undefined)
3. O=C(OCc1ccc2c(c1)OCO2)N(c1ccccc1)C1CN2CCC1CC2 (centres undefined)
4. O=C(OCc1ccccc1)N(c1ccccc1)C1CN2CCC1CC2 (centres undefined)

[98.8, 97.5, 99.4, 99.4]

List the reported Imax of each compound below.
1. COc1ccc(CCN(C(=O)OC2CN3CCC2CC3)c2ccccc2)cc1 (racemic)
2. O=C(OC1CN2CCC1CC2)N(CCc1ccc(F)cc1)c1ccccc1 (racemic)
3. Cc1ccc(COC(=O)N(c2ccccc2)C2CN3CCC2CC3)cc1F (centres undefined)
4. O=C(OCCCc1ccc(Cl)c(Cl)c1)N(c1ccccc1)C1CN2CCC1CC2 (centres undefined)

[99.7, 100, 99.7, 99.9]

----------
Target: Muscarinic acetylcholine receptor M5 (Homo sapiens) (UniProt P08912)
Test: Displacement of [3H]NMS from human M5 AChR expressed in CHO cell membranes at 100 uM after 1 to 2 hrs by liquid scintillation spectrometry method relative to control
Provide the reported Imax of each item.
Give bare numbers, in %.

Guide cases for Imax, answers given:
[[record]]
compound = "COc1ccc(CCN(C(=O)OC2C[C@H]3CC[C@H](C2)N3C)c2ccccc2)cc1OC (stereo partly specified)"
assay_target = "Muscarinic acetylcholine receptor M5 (Homo sapiens) (UniProt P08912)"
quantitative_result = 95.9

[[record]]
compound = "COc1ccc(COC(=O)N(c2ccccc2)C2CN3CCC2CC3)cc1 (stereo unspecified)"
assay_target = "Muscarinic acetylcholine receptor M5 (Homo sapiens) (UniProt P08912)"
quantitative_result = 97.1

[[record]]
compound = "O=C(OCCCc1ccc(F)c(F)c1)N(c1ccccc1)C1CN2CCC1CC2 (stereo unspecified)"
assay_target = "Muscarinic acetylcholine receptor M5 (Homo sapiens) (UniProt P08912)"
quantitative_result = 99.4

[[record]]
compound = "COc1ccc(CCCOC(=O)N(c2ccccc2)C2CN3CCC2CC3)cc1F (stereo unspecified)"
assay_target = "Muscarinic acetylcholine receptor M5 (Homo sapiens) (UniProt P08912)"
quantitative_result = 99.4


// each compound listed below needs its Imax
1. O=C(OCCCc1ccccc1)N(c1ccccc1)C1CN2CCC1CC2 (stereo unspecified)
2. COc1ccc(CCN(C(=O)OC2CN3CCC2CC3)c2ccccc2)cc1OC (racemic)
3. COc1ccc(CCOC(=O)N(c2ccccc2)C2CN3CCC2CC3)cc1OC (stereo unspecified)
4. CN1CCC(OC(=O)N(CCc2ccc(F)cc2)c2ccccc2)CC1
5. Cc1ccc(COC(=O)N(c2ccccc2)C2CN3CCC2CC3)cc1F (stereo unspecified)
6. COc1ccc(CCN(C(=O)OC2CCCN(C)C2)c2ccccc2)cc1OC (stereo unspecified)
7. COc1ccc(CCCOC(=O)N(c2ccccc2)C2CN3CCC2CC3)cc1OC (stereo unspecified)

1. 95.7
2. 99.8
3. 94
4. 100
5. 97.4
6. 89.2
7. 99

----------
Provide the reported Ki of each item.
Target: Muscarinic acetylcholine receptor M4 (Homo sapiens, UniProt P08173)
Sequence (P08173 whole entry): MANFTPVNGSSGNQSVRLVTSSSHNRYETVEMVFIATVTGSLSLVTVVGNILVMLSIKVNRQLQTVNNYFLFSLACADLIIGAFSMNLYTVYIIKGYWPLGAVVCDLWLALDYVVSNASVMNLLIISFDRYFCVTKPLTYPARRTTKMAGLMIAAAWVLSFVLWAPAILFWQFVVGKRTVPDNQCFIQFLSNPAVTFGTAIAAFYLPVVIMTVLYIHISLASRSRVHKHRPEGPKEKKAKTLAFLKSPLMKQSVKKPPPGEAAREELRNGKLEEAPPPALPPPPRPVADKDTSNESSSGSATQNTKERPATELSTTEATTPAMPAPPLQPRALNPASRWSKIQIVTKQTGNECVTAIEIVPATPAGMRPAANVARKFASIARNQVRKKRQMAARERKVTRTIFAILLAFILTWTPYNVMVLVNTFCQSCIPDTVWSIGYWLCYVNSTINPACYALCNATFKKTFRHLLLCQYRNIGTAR
Test: Displacement of [3H]NMS from human M4 AChR expressed in CHO cell membranes after 1 to 2 hrs by liquid scintillation spectrometry method
Units required after the number.

[[record]]
compound = "COc1ccc(CCN(C(=O)OC2CN3CCC2CC3)c2ccccc2)cc1 (racemic)"
result = "25 nM"


Kindly consider the entry below.
Form field, Ki with Muscarinic acetylcholine receptor M4 (Homo sapiens, UniProt P08173), item O=C(OC1CN2CCC1CC2)N(CCc1ccc(F)cc1)c1ccccc1 (racemic) : 2.2 nM

----------
What pKi was measured for each of the following?
Biological target: Muscarinic acetylcholine receptor M5 (Homo sapiens, UniProt P08912)
Sequence (P08912 whole entry): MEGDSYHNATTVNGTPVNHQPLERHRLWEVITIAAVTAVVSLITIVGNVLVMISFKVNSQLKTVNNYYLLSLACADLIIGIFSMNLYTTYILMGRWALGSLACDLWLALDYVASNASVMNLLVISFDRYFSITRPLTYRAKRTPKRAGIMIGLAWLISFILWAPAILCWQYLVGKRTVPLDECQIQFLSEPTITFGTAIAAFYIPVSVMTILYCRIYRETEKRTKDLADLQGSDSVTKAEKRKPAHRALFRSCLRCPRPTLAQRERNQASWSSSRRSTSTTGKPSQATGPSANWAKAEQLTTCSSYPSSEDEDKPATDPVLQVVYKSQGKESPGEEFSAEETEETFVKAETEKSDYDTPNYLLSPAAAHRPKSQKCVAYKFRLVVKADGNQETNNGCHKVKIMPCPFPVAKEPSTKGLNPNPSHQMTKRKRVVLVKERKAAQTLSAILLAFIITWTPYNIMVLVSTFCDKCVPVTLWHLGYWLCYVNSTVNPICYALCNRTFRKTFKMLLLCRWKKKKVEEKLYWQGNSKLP
Give bare numbers, as −log10 of the molar value.

Example results:
[[record]]
compound = "Cc1ccc(CCCOC(=O)N(c2ccccc2)C2CN3CCC2CC3)cc1F (centres undefined)"
metric = "pKi"
quantitative_result = 6.89

[[record]]
compound = "O=C(OCCCc1ccc(F)c(F)c1)N(c1ccccc1)C1CN2CCC1CC2 (centres undefined)"
metric = "pKi"
quantitative_result = 7.00

[[record]]
compound = "COc1ccc(CCN(C(=O)OC2C[C@H]3CC[C@H](C2)N3C)c2ccccc2)cc1 (some centres undefined)"
metric = "pKi"
quantitative_result = 6.62

[[record]]
compound = "COc1ccc(CCCOC(=O)N(c2ccccc2)C2CN3CCC2CC3)cc1OC (centres undefined)"
metric = "pKi"
quantitative_result = 5.79

[[record]]
compound = "COc1ccc(COC(=O)N(c2ccccc2)C2CN3CCC2CC3)cc1F (centres undefined)"
metric = "pKi"
quantitative_result = 7.40

[[record]]
compound = "O=C(OCc1ccc2c(c1)OCO2)N(c1ccccc1)C1CN2CCC1CC2 (centres undefined)"
metric = "pKi"
quantitative_result = 7.40

[[record]]
compound = "O=C(OC1CN2CCC1CC2)N(CCc1ccc(F)cc1)c1ccccc1 (racemic)"
metric = "pKi"
quantitative_result = 8.74

[[record]]
compound = "O=C(OCCc1ccc2c(c1)OCO2)N(c1ccccc1)C1CN2CCC1CC2 (centres undefined)"
metric = "pKi"
quantitative_result = 6.62

[[record]]
compound = "O=C(OCc1ccccc1)N(c1ccccc1)C1CN2CCC1CC2 (centres undefined)"
metric = "pKi"
quantitative_result = 6.82

[[record]]
compound = "Cc1ccc(COC(=O)N(c2ccccc2)C2CN3CCC2CC3)cc1F (centres undefined)"
metric = "pKi"
quantitative_result = 7.52


Please go through the list and note pKi for each compound.
1. COc1ccc(CCOC(=O)N(c2ccccc2)C2CN3CCC2CC3)cc1OC (centres undefined)
2. COc1ccc(CCCOC(=O)N(c2ccccc2)C2CN3CCC2CC3)cc1F (centres undefined)
3. COc1ccc(CCN(C(=O)OC2C[C@H]3CC[C@H](C2)N3C)c2ccccc2)cc1OC (some centres undefined)
4. O=C(OCCc1ccc(Cl)c(Cl)c1)N(c1ccccc1)C1CN2CCC1CC2 (centres undefined)
5. O=C(OCc1ccc(Cl)c(Cl)c1)N(c1ccccc1)C1CN2CCC1CC2 (centres undefined)

[5.46, 6.59, 5.86, 7.10, 7.22]

// for each compound in input: emit pKi
1. O=C(OCCc1ccccc1)N(c1ccccc1)C1CN2CCC1CC2 (centres undefined)
2. COc1ccc(COC(=O)N(c2ccccc2)C2CN3CCC2CC3)cc1 (centres undefined)

[6.59, 6.33]

# batch size: 2; output pKi per entry
1. COc1ccc(CCN(C(=O)OC2CN3CCC2CC3)c2ccccc2)cc1 (racemic)
2. O=C(OCCCc1ccccc1)N(c1ccccc1)C1CN2CCC1CC2 (centres undefined)

8.00
6.59
